- Test system: HS 578T breast
- test: NCI tumour cell line growth inhibition, 48 h; in the data active = GI50 below about 0.43 µM; inactive = the rest
I would appreciate it if you answered using one of these outcomes: Y for active, N for inactive

Please review the entries below; each comes with its answer.
{"compound_structure": "C[C@@H]1[C@H]2[C@H](C=C3[C@@H]4CC[C@H]5Cc6nc7c(nc6C[C@]5(C)[C@H]4C[C@@H](O)[C@@]32C)C[C@@H]2CC[C@H]3C4=C[C@@H]5O[C@@]6(CC[C@](C)(CO)O6)[C@@H](C)[C@@]5(O)[C@@]4(C)[C@H](O)C[C@@H]3[C@@]2(C)C7)O[C@]12CCC(C)(C)O2", "group_label": "Y"}
{"compound_structure": "FC(F)(F)c1[nH]ncc1-c1nc2c(N3CCCCC3)cc3[nH]ncc3c2c2c1CCCC2", "group_label": "N"}

For the next question, use this molecule.
# outcome recorded in this test, key = "Cc1cc(Nc2cc(CN3CCOCC3)c3nc(C)c(Cc4ccc(Cl)cc4F)n3n2)n[nH]1"
N

###

- Tested on: MALME-3M melanoma
- test: NCI tumour cell line growth inhibition, 48 h
readout: TGI (µM)
Value expressed in µM; do not type the unit.

{"compound_structure": "N#Cc1nc(Sc2cnsn2)c(Sc2cnsn2)nc1C#N", "numeric_result": 33.3}

Let us examine a further case.
Sample "O=C1c2ccc3c4c(ccc(c24)C(=O)N1CCCNCc1ccccc1)C(=O)N(CCCNCc1ccccc1)C3=O" ; TGI observed: 0.298

###

compounds and their reported TGI
- Tested on: KM12 colon
- test: NCI tumour cell line growth inhibition, 48 h

Look over these answered cases.
{"compound": "CC(=O)/C(N=Nc1ccc(-n2c(C)nc3ccc(Br)cc3c2=O)cc1)=C(/C)O", "result": "> 100 µM"}
{"compound": "C=CC(=O)NCCOc1cccc(Nc2cc(NCCCNC(=O)C3CCC3)c(Br)cn2)c1", "result": "> 25 µM"}
{"compound": "O=C1NC2(CCCC2)/C(=N\\O)C12CCCC2", "result": "> 100 µM"}
{"compound": "O=C(CCc1ccco1)NC1CCN(CC2(c3ccc(Cl)cc3)CCC2)CC1", "result": "31.5 µM"}

Sample Nc1ccc(C(=O)NN2C(=O)C(Cl)C2c2cc(Br)cc(Br)c2O)cc1 (stereo unspecified) ; TGI observed: > 100 µM

Sample "COc1nc2c(cc1S(=O)(=O)c1ccccc1)CCc1c-2cnn1Cc1ccccc1" ; TGI observed: > 100 µM

Sample COc1cc2c(cc1O)[C@H](C)C(c1ccccc1OC)O2 (stereo partly specified) ; TGI observed: > 100 µM

Sample "COc1cc2cn3c4ccc(O)cc4nc(N)c3c2cc1OC" ; TGI observed: 4.48 µM

###

compounds and their reported TGI
- System: PC-3 prostate
- test: NCI tumour cell line growth inhibition, 48 h

{"compound": "Brc1cccc(Nc2ncnc3sc4c(c23)CCC(Nc2cccc(Br)c2)C4)c1 (stereo not drawn)", "TGI": "> 100 µM"}
{"compound": "O=C1CCc2nc3ncccc3cc2C1", "TGI": "> 100 µM"}
{"compound": "CCNc1nc(N)c(C(=O)c2cccs2)s1", "TGI": "> 100 µM"}
{"compound": "[C-]#[O+].[C-]#[O+].[Ir].[O-]c1ccc2ccccc2c1N=Nc1ccccc1", "TGI": "54 µM"}

Sample Cc1coc2c1CC1OC1(C)CCC1OC1(C)C2 (stereo not drawn) ; TGI observed: > 100 µM

Sample Cc1cc(O)c(C2=NN(c3ccc(S(N)(=O)=O)cc3)C(c3ccccc3O)C2)cc1Cl (stereo not drawn) ; TGI observed: 3.26 µM

Sample "C/C(=N/NC(=S)N(C)CCc1ccccn1)c1cnccn1" ; TGI observed: 16.1 µM

Sample "c1ccc(CN2CCCN3CCN(CCCN(Cc4ccccc4)CC3)CC2)cc1" ; TGI observed: > 100 µM

Sample "COc1ccc(-c2nn(-c3ccc(NC(=O)Nc4ccc(Cl)c(Cl)c4)cc3)cc2-c2ccncc2)cc1Cl" ; TGI observed: 14.4 µM

Sample "COc1ccc2[nH]c(-c3ccccc3)c(C=C(C#N)C#N)c2c1" ; TGI observed: > 100 µM

Sample "C=CC(=O)NCCOc1cccc(Nc2cc(NCCCNC(=O)C3CCC3)c(Br)cn2)c1" ; TGI observed: 11 µM

Sample "CCOC(=O)c1ccc(NC(=O)O/N=C(/Cl)C(C)C)cc1" ; TGI observed: 34.9 µM
